tested_target: human RIP1 kinase domain (2-375) (Homo sapiens (Human), UniProt Q13546)
Sequence (Q13546 2-375): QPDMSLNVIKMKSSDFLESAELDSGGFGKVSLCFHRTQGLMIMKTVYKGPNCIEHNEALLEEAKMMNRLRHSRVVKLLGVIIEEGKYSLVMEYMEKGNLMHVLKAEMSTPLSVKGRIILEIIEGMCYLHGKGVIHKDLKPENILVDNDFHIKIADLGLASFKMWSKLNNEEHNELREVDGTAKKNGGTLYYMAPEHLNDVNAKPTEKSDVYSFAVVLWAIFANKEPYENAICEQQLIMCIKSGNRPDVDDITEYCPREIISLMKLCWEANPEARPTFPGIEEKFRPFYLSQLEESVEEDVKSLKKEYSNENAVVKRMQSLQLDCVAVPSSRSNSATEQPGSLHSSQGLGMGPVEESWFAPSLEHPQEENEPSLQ
protocol_notes: biochemical
Assay type: biochemical
assay_context: human RIP1 kinase domain (2-375), Transcreener ADP assay, 50 uM ATP, 2 hours incubation; read-out: RIP1 Ki
endpoint: Ki (nM)
Please respond with the number in nM and leave the unit unwritten.

Examples from the recorded data:
1) CN1C(=O)C(NC(=O)c2ncn(CCC(F)(F)F)n2)CCn2nc(C3CC3)cc21 (stereo not shown) ... 1600
2) CN1C(=O)[C@H](NC(=O)c2ncn(Cc3ccc(F)cc3)n2)CCn2nc([C@H]3CC3(F)F)cc21 ... 25.3
3) CN1C(=O)[C@@H](NC(=O)c2cc3c(cn2)COC3(C)C2CC2)COc2ccccc21 (stereo partly shown) ... 37.4
4) CN1C(=O)C(NC(=O)c2ncn(CC3CCCC3)n2)CCn2nc(C3CC3)cc21 (stereo not shown) ... 104
5) Cc1cc2n(n1)CC[C@@H](NC(=O)c1nnc(Cc3ccccc3)[nH]1)C(=O)N2C ... 8900
6) CN1C(=O)[C@@H](NC(=O)c2ncn(Cc3ccc(F)cc3F)n2)CCn2nc([C@@H]3CC3(F)F)cc21 ... 28.6
7) Cc1ncn2c1N(C)C(=O)C(NC(=O)c1cn(Cc3ccccc3)nn1)CC2 (stereo not shown) ... 419
8) CN1C(=O)[C@@H](NC(=O)c2ncn(Cc3cccc(F)c3F)n2)CCn2nc([C@H]3CC3(F)F)cc21 ... 5250
9) CN1C(=O)[C@@H](NC(=O)c2ncn(CC3CC3(F)F)n2)CCn2nc(C3CC3)cc21 (stereo in doubt) ... 820
10) Cc1cc2n(n1)CCC(NC(=O)c1ncn(Cc3ccc(Cl)cc3)n1)C(=O)N2C (stereo not shown) ... 92.1

According to the records, this compound CN1C(=O)C(NC(=O)c2ncn(Cc3ccc(F)cc3)n2)CCn2nc(C3CC3)cc21 (stereo not shown) displays Ki of 82.9

According to the records, this compound CC(c1ccccc1)n1cnc(C(=O)N[C@H]2CCn3nc(C4CC4)cc3N(C)C2=O)n1 (stereo in doubt) displays Ki of 100

According to the records, this compound "CN1C(=O)[C@@H](NC(=O)c2ncn(Cc3cccc(F)c3F)n2)CCn2nc(C3CC3)cc21" displays Ki of 13

According to the records, this compound "CN1C(=O)[C@@H](NC(=O)c2n[nH]c3ncc(C(F)(F)F)cc23)COc2ccccc21" displays Ki of 98.1

According to the records, this compound "Cc1cc2n(n1)CC[C@@H](NC(=O)c1nnc(Cc3ccc(F)cc3)[nH]1)C(=O)N2C" displays Ki of 3810

According to the records, this compound "CN1C(=O)[C@@H](NC(=O)c2n[nH]c3ncc(C4CC4)cc23)COc2ccccc21" displays Ki of 289

According to the records, this compound COCC1(C)OCc2cnc(C(=O)N[C@H]3COc4ccccc4N(C)C3=O)cc21 (stereo partly shown) displays Ki of 511

According to the records, this compound CN1C(=O)C(NC(=O)c2cn(Cc3ccccc3)nn2)CCn2nc(C3CCOCC3)cc21 (stereo not shown) displays Ki of 1400

According to the records, this compound CN1C(=O)[C@@H](NC(=O)c2nnn3c2CC(C(F)(F)C(F)(F)F)CC3)COc2ccccc21 (stereo partly shown) displays Ki of 23.9

According to the records, this compound "Cc1nn2c(c1C)N(C)C(=O)[C@@H](NC(=O)c1ncn(Cc3ccc(F)cc3)n1)CC2" displays Ki of 38.7

According to the records, this compound Cc1cc2n(n1)CC[C@H](NC(=O)c1cc3c(cn1)COC3(C)CC(F)(F)F)C(=O)N2C (stereo partly shown) displays Ki of 1300

According to the records, this compound CN1C(=O)C(NC(=O)c2ncn(CC3CC(F)(F)C3)n2)CCn2nc(C3CC3)cc21 (stereo not shown) displays Ki of 811

According to the records, this compound "CN1C(=O)[C@@H](NC(=O)c2ncn(Cc3ccc(F)cc3F)n2)CCn2nc([C@H]3CC3(F)F)cc21" displays Ki of 9500

According to the records, this compound CCC1(C)OCc2cnc(C(=O)N[C@H]3CCn4nc(C)cc4N(C)C3=O)nc21 (stereo partly shown) displays Ki of 618

According to the records, this compound "Cc1cc2n(n1)CC[C@H](NC(=O)c1ncn(Cc3c(F)cccc3F)n1)C(=O)N2C" displays Ki of 10.4

According to the records, this compound Cc1cccc(Cn2cnc(C(=O)NC3CCn4nc(C5CC5)cc4N(C)C3=O)n2)n1 (stereo not shown) displays Ki of 789

According to the records, this compound CN1C(=O)C(NC(=O)c2cn(Cc3ccccc3)nn2)CCn2cncc21 (stereo not shown) displays Ki of 118

According to the records, this compound "Cc1nn2c(c1C)N(C)C(=O)[C@@H](NC(=O)c1ncn(Cc3ccc(F)cc3F)n1)CC2" displays Ki of 50.9

According to the records, this compound "CN1C(=O)[C@H](NC(=O)c2ncn(Cc3ccc(F)cc3F)n2)CCn2nc(C3CC3)cc21" displays Ki of 2560

According to the records, this compound "CN1C(=O)[C@@H](NC(=O)c2ncn(Cc3ccc(F)cc3)n2)CCn2nc([C@H]3CC3(F)F)cc21" displays Ki of 6610
